The origin of these recorded values is patent US11358936B2.

# pIC50 values compiled below
# TARGET ENTITY: human LOXL2 (Homo sapiens (Human))
# Sequence (Q9Y4K0 26-774): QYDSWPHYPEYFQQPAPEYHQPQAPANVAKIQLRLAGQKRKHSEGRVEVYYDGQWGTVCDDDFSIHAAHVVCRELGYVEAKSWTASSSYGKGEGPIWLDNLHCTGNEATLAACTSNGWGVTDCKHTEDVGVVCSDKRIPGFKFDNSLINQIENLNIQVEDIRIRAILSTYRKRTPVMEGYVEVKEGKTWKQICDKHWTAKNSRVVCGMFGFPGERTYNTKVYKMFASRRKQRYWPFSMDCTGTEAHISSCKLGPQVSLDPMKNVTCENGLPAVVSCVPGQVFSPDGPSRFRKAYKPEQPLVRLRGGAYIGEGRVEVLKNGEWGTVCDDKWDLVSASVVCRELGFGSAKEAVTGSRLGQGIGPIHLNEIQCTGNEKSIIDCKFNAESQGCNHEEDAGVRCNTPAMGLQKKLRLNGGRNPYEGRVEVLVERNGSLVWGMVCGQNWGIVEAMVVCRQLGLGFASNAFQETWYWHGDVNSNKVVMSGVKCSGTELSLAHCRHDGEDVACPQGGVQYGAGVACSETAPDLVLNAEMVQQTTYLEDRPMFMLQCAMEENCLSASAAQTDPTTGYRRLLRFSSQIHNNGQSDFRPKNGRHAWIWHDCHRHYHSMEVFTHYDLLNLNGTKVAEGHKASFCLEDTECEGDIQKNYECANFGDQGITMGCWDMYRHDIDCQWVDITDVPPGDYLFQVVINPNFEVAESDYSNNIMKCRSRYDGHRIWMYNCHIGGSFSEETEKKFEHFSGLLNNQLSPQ
# EXPERIMENT NOTES: Human LOXL2 Amine Oxidase Activity Assay (Amplex Red fluorescence)
# Assay type: biochemical
# EXPERIMENTAL SETUP: concentrated conditioned media from CHO cells stably expressing human LOXL2; 2 h at 37° C. preincubation; DAP substrate; read-out: IC50
pIC50: −log10 of the molar value. Where a name gives a salt, the structure may show the parent alone.

Record excerpt, results attached:
• NCc1ccnc(NC(=O)Cc2ccc(Cl)c(Cl)c2)c1 [Compound 2-43, trifluoroacetate] = 6.00 to 6.52
• COCCNC(=O)c1cc(CN)ccn1 [Compound 4-13, hydrochloride] = > 6.52
• COc1cccc(NC(=O)c2cccc(Oc3cc(CN)ccn3)c2)c1 [Compound 1-19, hydrochloride] = > 6.52

Input line: What measured pIC50 goes with NCc1ccnc(Oc2cccc3c2ccn3-c2ccc(F)cc2)c1 [Compound 2-18, hydrochloride] ?
Output line: > 6.52

Input line: What measured pIC50 goes with NCc1ccnc(-c2ccc(C(=O)O)cc2)c1 ?
Output line: 6.00 to 6.52

Input line: What measured pIC50 goes with COCCNC(=O)c1ccc(Oc2cc(CN)ccn2)cc1 [Compound 1-11, hydrochloride] ?
Output line: 6.00 to 6.52

Input line: What measured pIC50 goes with NCc1ccnc(Oc2cccc3[nH]ccc23)c1 [Compound 2-32, trifluoroacetate] ?
Output line: > 6.52

Input line: What measured pIC50 goes with NCc1ccnc(-n2ccnc2)c1 ?
Output line: > 6.52

Input line: What measured pIC50 goes with CN(C)C(=O)Cn1ccc2c(Oc3cc(CN)ccn3)cccc21 [Compound 2-26, hydrochloride] ?
Output line: > 6.52

----------
# pIC50 values compiled below
# TARGET ENTITY: human LOXL2 (Homo sapiens (Human))
# EXPERIMENT NOTES: Human LOXL2 Amine Oxidase Activity Assay (Amplex Red fluorescence)
# Format: biochemical
# EXPERIMENTAL SETUP: concentrated conditioned media from CHO cells stably expressing human LOXL2; 2 h at 37° C. preincubation; DAP substrate; read-out: IC50
pIC50: −log10 of the molar value. Structures can show the parent of a compound that is named as a salt.

Record excerpt, results attached:
• NCc1ccnc(Oc2ccc(F)cc2)c1 = > 6.52
• NCc1ccnc(-c2cccc(C(=O)O)c2)c1 [Compound 2-5, hydrochloride] = 6.00 to 6.52
• NCc1ccnc(Oc2cccc(C(=O)NCc3ccc(F)cc3F)c2)c1 [Compound 1-30, hydrochloride] = > 6.52
• NCc1ccnc(F)c1 = 6.00 to 6.52
• Cn1cc(-n2ccc3c(Oc4cc(CN)ccn4)cccc32)cn1 [Compound 2-19, hydrochloride] = > 6.52
• Cc1cn(Cc2ccc(F)cc2F)c2cccc(Oc3cc(CN)ccn3)c12 [Compound 2-12, trifluoroacetate] = > 6.52
• NCc1ccnc(Oc2cccc3c2ccn3Cc2ccc3ccccc3n2)c1 [Compound 2-16, hydrochloride] = > 6.52
• COc1ccc(CN2C(=O)CCc3c(Oc4cc(CN)ccn4)cccc32)cn1 [Compound 2-37, acetate] = > 6.52
• NCc1ccnc(Oc2cccc3c2ccn3CC(=O)N2CCCCC2)c1 [Compound 2-27, hydrochloride] = > 6.52
• NCc1cccnc1F = < 6.00

Input line: What measured pIC50 goes with NCc1ccnc(-c2ccc(F)cc2)c1 ?
Output line: > 6.52

Input line: What measured pIC50 goes with NCc1ccnc(Oc2cccc(C(=O)Nc3ccc(C(=O)O)cc3)c2)c1 [Compound 1-29, hydrochloride] ?
Output line: > 6.52

Input line: What measured pIC50 goes with NCc1ccnc(OCc2cccc(C(=O)Nc3ccccc3)c2)c1 [Compound 1-45, hydrochloride] ?
Output line: > 6.52

Input line: What measured pIC50 goes with NCc1ccnc(Oc2ccc(C(=O)O)cc2)c1 [Compound 2-9, hydrochloride] ?
Output line: 6.00 to 6.52

Input line: What measured pIC50 goes with NCc1cc(Oc2cccc(Oc3ccccc3)c2)nc(-c2ccc(F)cc2)c1 [Compound 3-3, trifluoroacetate] ?
Output line: 6.00 to 6.52

Input line: What measured pIC50 goes with COCCNC(=O)c1ccc(-c2cc(CN)ccn2)cc1 [Compound 1-1, hydrochloride] ?
Output line: > 6.52

Input line: What measured pIC50 goes with Cc1ccc(Cl)cc1NC(=O)c1cccc(-c2cc(CN)ccn2)c1 [Compound 1-9, hydrochloride] ?
Output line: > 6.52
